From: patent US8940724B2

# ASSAYED SYSTEM: PI3Kδ (Homo sapiens, UniProt O00329)
# Construct: Full length p110 subunits of PI3k α, β and δ, N-terminally labeled with polyHis tag; polyHis (N)
# Sequence (O00329 whole entry): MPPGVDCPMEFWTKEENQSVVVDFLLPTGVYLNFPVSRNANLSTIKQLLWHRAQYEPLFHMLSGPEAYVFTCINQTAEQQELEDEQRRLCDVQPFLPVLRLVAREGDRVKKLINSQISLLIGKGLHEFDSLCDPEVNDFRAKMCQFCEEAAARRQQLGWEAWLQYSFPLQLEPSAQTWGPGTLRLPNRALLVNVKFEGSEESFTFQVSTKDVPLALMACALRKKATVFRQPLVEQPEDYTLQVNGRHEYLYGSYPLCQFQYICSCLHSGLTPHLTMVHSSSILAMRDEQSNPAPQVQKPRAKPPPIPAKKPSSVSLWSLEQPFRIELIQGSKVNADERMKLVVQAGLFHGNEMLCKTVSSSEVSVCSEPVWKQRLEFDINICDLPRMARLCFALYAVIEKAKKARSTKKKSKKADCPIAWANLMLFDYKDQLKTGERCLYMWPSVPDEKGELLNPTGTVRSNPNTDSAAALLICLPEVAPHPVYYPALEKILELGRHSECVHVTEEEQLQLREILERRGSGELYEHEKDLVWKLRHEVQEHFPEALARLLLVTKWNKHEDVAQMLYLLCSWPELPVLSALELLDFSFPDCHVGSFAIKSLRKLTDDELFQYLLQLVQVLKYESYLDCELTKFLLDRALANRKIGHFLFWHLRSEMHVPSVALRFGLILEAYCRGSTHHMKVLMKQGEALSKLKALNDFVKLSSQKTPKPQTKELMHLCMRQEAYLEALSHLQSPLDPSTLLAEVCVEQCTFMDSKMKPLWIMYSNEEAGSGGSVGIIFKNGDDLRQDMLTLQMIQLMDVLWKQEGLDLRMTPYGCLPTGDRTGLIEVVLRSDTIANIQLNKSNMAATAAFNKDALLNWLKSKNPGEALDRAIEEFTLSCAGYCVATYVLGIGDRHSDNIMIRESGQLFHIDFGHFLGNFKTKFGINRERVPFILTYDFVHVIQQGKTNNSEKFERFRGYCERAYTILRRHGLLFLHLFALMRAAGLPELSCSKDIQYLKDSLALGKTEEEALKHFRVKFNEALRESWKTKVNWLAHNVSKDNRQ
# Sequence (P27986 whole entry partner): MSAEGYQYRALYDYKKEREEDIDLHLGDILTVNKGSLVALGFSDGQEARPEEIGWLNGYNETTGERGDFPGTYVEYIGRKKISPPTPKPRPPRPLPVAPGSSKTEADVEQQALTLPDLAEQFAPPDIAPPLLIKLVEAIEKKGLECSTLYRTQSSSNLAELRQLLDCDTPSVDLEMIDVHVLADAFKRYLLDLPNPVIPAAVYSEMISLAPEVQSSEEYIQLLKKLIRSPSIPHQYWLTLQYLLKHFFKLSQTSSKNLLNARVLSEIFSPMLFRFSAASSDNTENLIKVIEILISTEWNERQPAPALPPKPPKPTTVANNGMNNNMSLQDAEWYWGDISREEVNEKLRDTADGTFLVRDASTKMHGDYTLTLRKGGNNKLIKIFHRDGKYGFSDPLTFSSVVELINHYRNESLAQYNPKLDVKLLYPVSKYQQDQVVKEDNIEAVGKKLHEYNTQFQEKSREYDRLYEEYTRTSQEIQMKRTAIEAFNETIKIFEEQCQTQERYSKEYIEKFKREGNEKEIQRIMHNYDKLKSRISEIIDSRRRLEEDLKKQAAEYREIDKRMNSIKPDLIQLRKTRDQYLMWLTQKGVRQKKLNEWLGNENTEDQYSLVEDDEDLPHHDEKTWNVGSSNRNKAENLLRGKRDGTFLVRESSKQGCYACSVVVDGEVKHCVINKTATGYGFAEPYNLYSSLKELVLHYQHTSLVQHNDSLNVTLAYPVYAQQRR
# ASSAY METHOD TEXT: PI3Kδ Alphascreen assay
METRIC: pKi
Numbers only, as −log10 of the molar value.

The examples below pair each entry with its known result.
CCCN1CCN(c2nc3cc(F)cc(F)c3c(Nc3cncc(N4CCOCC4)c3)c2C)CC1
7.87
Cc1ccnc(-c2nc3c(Cl)cccc3c(Nc3cncc(N4CCOCC4)c3)c2C)c1
8.62
Cc1c(-c2cc(O)ccc2S(C)(=O)=O)nc2cc(F)ccc2c1Nc1cc(N2CCOCC2)cnc1N1CCOCC1
7.76
COC(=O)N1CCN(c2nc3cc(F)cc(F)c3c(Nc3cncc(N4CCOCC4)c3)c2C)C[C@@H]1C
7.82
Cc1c(-c2ccccc2[S@+](C)[O-])nc2cc(F)cc(F)c2c1Nc1cc(N2CCOCC2)cnc1N1CCOCC1
7.29

Hi! Can you tell me pKi for each of these compounds?
1. CCOC(=O)N1CCN(c2nc3cc(F)cc(F)c3c(Nc3cncc(N4CCOCC4)c3)c2C)CC1
2. CCN1CCN(c2nc3cc(F)cc(F)c3c(Nc3cc(N4CCOCC4)cnc3N3CCOCC3)c2C)CC1=O
3. Cc1c(-c2ccc(N3CCC(F)(F)CC3)nc2)nc2cc(F)cc(F)c2c1Nc1cc(N2CCOCC2)cnc1N1CCOCC1
4. COc1ccc(-c2nc3cc(F)cc(F)c3c(Nc3cc(N4CCOCC4)cnc3N3CCOCC3)c2C)cn1

1. 7.34
2. 8.89
3. 7.36
4. 7.48
